- Tested on: A549-ACE2 infected with SARS-CoV-2
- protocolDescription: cell count relative to DMSO; higher = less toxic
- testSettings: 30 µM; 24 h
Exercise: for every item that follows, state its recorded cell count.
Numeric only. Scale: %

Problem: State, in one line, measured cell count of C[C@@H](O[C@H]1OCCN(Cc2nn[nH]c2CN(C)C)[C@H]1c1ccc(F)cc1)c1cc(C(F)(F)F)cc(C(F)(F)F)c1
Solution: 96

Problem: State, in one line, measured cell count of c1cnc2c([O][Ga]([O]c3cccc4cccnc34)[O]c3cccc4cccnc34)cccc2c1 [gallium-triquinolin-8-olate]
Solution: 35

Problem: State, in one line, measured cell count of CCCc1cc(C)[nH]c(=O)c1CNC(=O)c1cc(-c2ccc(N3CCN(C(C)C)CC3)nc2)cc2c1cnn2C(C)C
Solution: 121

Problem: State, in one line, measured cell count of CCC[C@@H]1CC2=CC(=O)CC[C@]2(C)[C@H]2CC[C@@]3(C)[C@@H](CC[C@@]3(O)CCC(=O)O)[C@H]12
Solution: 99

Problem: State, in one line, measured cell count of CCN1CCN(c2ccc(C(C)(C)NC(=O)c3cc4[nH]c5ccccc5c(=O)c4cc3F)cn2)CC1
Solution: 72
